Collected Plant response rating, Ducksalad values appear next to each entry.
System: duck salad (Heteranthera limosa)
TEST_SUMMARY: Test B flooded paddy test
Type: in vivo
STUDY_CONDITIONS: Rate 1000 g/ha, scale of 0 to 100 where 0 is no effect and 100 is complete control, visually evaluated after 13 to 15 days

MOLECULE	Plant response rating, Ducksalad
CC(C)(C)c1ccn(C2CCN(c3cccc(C(F)(F)F)c3)C2=S)n1 (stereo not drawn)	100
COc1cccc(N2CCC(n3ccc(C(C)(C)C)n3)C2=O)c1 (stereo not drawn)	100
CC(C)(C)c1ccn(C2SCN(c3cccc(OC(F)(F)F)c3)C2=O)n1 (stereo not drawn)	100
Cc1ccc(N2CCC(n3ccc(C(C)(C)C)n3)C2=O)cc1Br (stereo not drawn)	0
CC(C)c1ccn(C2SCN(c3cccc(OC(F)(F)F)c3)C2=O)n1 (stereo not drawn)	100
CCC(C)c1ccn(C2SCN(c3cccc(OC(F)(F)F)c3)C2=O)n1 (stereo not drawn)	100
CCC(C)Oc1ccn(C2CCN(c3cccc(C(F)(F)F)c3)C2=O)n1 (stereo not drawn)	70
Cc1ccc(N2CCC(n3ccc(C(C)(C)C)n3)C2=O)cc1C(F)(F)F (stereo not drawn)	20
CC(C)(C)c1ccn(C2CCN(c3cccc(C(F)(F)F)c3)C2=O)n1 (stereo not drawn)	100
